Each recorded value in this set is attributed to ChEMBL document CHEMBL1141727.

- Test system: OVCAR-4
- procedure-details: Growth inhibition of human OVCAR4 cells
- Assay type: functional
# GI50 per entry
Report only the number, with the unit µM understood.

Worked set:
{"columns": ["compound", "GI50 (µM)"],
 "data": [
  ["C=C1CCC[C@H]2[C@](C)(CC[C@]3(C)CC[C@@H]([C@@H](C)C(=O)O)OO3)[C@@H](C)CC[C@]12C", 0.95],
  ["C=C1CCCC(C)(C)C1CCC1(C)CC[C@H]([C@@H](C)C(=O)O)OO1 (single isomer, unassigned)", 2.4],
  ["C=C1CCC[C@H]2[C@](C)(CC[C@]3(C)CC[C@H]([C@@H](C)C(=O)O)OO3)[C@@H](C)CC[C@]12C", 1.89]
]}

Let us examine a further case.
Return reported GI50; argument: C=C1CCCC(C)(C)C1CC[C@]1(C)CC[C@H]([C@@H](C)C(=O)OC)OO1 (stereo not given in full)
4.01

---

- System: MDA-N
- procedure-details: Growth inhibition of human MDA-N cells
- Assay type: functional
result-type: GI50 (µM)
Please state the figure in µM; there is no need to write the unit.

Observe how each entry below is paired with its result.
{"columns": ["molecule", "target", "GI50, µM"],
 "data": [
  ["C=C1CCCC(C)(C)C1CCC1(C)CC[C@H]([C@@H](C)C(=O)O)OO1 (single isomer, unassigned)", "MDA-N", 3.52],
  ["C=C1CCCC(C)(C)C1CC[C@]1(C)CC[C@H]([C@@H](C)C(=O)OC)OO1 (some centres undefined)", "MDA-N", 3.54],
  ["C=C1CCC[C@H]2[C@](C)(CC[C@]3(C)CC[C@H]([C@@H](C)C(=O)O)OO3)[C@@H](C)CC[C@]12C", "MDA-N", 1.83]
]}

Which measured GI50 value corresponds to `C=C1CCC[C@H]2[C@](C)(CC[C@]3(C)CC[C@@H]([C@@H](C)C(=O)O)OO3)[C@@H](C)CC[C@]12C` ?
0.91

---

Consider the following molecules and their measured GI50 readings.
- System: SF-268
- procedure-details: Growth inhibition of human SF268 cells
- Format: functional
Write the answer as a number in µM, unit excluded.

{"columns": ["molecule", "observed-measurement"],
 "data": [
  ["C=C1CCCC(C)(C)C1CC[C@]1(C)CC[C@H]([C@@H](C)C(=O)OC)OO1 (stereo not given in full) [NUAPAPUIN B]", 3.19]
]}

Reported GI50 for C=C1CCC[C@H]2[C@](C)(CC[C@]3(C)CC[C@@H]([C@@H](C)C(=O)O)OO3)[C@@H](C)CC[C@]12C [SIGMOSCEPTRELLIN C] : what is it?
1.04

---

- Tested on: SK-MEL-28
- procedure-details: Growth inhibition of human SK-MEL-28 cells
- Format: functional
result-type: GI50

{"columns": ["compound", "observed-measurement"],
 "data": [
  ["COC(=O)[C@H](C)[C@H]1CC[C@@](C)(CCC2=C(C)CCCC2(C)C)OO1 [NUAPAPUIN A METHYL ESTER]", "> 25 µM"],
  ["C=C1CCC[C@H]2[C@](C)(CCC(C)=O)[C@@H](C)CC[C@]12C", "> 15 µM"],
  ["C=C1CCCC(C)(C)C1CC[C@]1(C)CC[C@@H]([C@@H](C)C(=O)O)OO1 (stereo partly drawn) [EPINUAPAPUIN B]", "> 10 µM"],
  ["C=C1CCCC(C)(C)C1CCC1(C)CC[C@H]([C@@H](C)C(=O)O)OO1 (single isomer, unassigned) [NAPAPUIN B]", "> 12.5 µM"],
  ["C=C1CCC[C@H]2[C@](C)(CC[C@]3(C)CC[C@H]([C@@H](C)C(=O)O)OO3)[C@@H](C)CC[C@]12C [SIGMOSCEPTRELLIN A]", "3.31 µM"],
  ["CC(=O)CC/C=C(\\C)CCC1=C(C)CCCC1(C)C", "> 15 µM"],
  ["C=C1CCCC(C)(C)C1(O)CC/C(C)=C/CC[C@]1(C)CC[C@@H]([C@@H](C)C(=O)OC)OO1 (stereo partly drawn) [MUQUBILIN B]", "> 17.5 µM"]
]}

Now for another entry.
Returns the measured GI50 for the input compound. Input: `CC1=C(CC/C(C)=C/CC[C@@]2(C)CC[C@H]([C@H](C)C(=O)O)OO2)C(C)(C)CCC1`
0.43 µM

---

- Tested on: RXF 393
- procedure-details: Growth inhibition of human […] cells
- Format: functional
result-type: GI50 (µM)
The figure you give is taken to be in µM; do not add the unit.

{"columns": ["molecule", "target", "result-unit", "GI50"],
 "data": [
  ["C=C1CCC[C@H]2[C@](C)(CC[C@]3(C)CC[C@H]([C@@H](C)C(=O)O)OO3)[C@@H](C)CC[C@]12C [SIGMOSCEPTRELLIN A]", "RXF 393", "µM", 1.22],
  ["C=C1CCCC(C)(C)C1CCC1(C)CC[C@H]([C@@H](C)C(=O)O)OO1 (single isomer, unassigned) [NAPAPUIN B]", "RXF 393", "µM", 5.04],
  ["C=C1CCC[C@H]2[C@](C)(CC[C@]3(C)CC[C@@H]([C@@H](C)C(=O)O)OO3)[C@@H](C)CC[C@]12C [SIGMOSCEPTRELLIN C]", "RXF 393", "µM", 2.95]
]}

Let's switch to this molecule now.
What value of measured GI50 is listed for C=C1CCCC(C)(C)C1CC[C@]1(C)CC[C@H]([C@@H](C)C(=O)OC)OO1 (stereo not given in full) [NUAPAPUIN B] ?
2.62

---

- Test system: CCRF-CEM
- procedure-details: Growth inhibition of human CCRF-CEM cells
- Type: functional
result-type: GI50 (µM)
Write the number in µM without appending the unit.

{"columns": ["molecule", "GI50, µM"],
 "data": [
  ["C=C1CCCC(C)(C)C1CC[C@]1(C)CC[C@H]([C@@H](C)C(=O)OC)OO1 (stereo partly specified)", 1.27],
  ["CC1=C(CC/C(C)=C/CC[C@@]2(C)CC[C@@H]([C@H](C)C(=O)O)OO2)C(C)(C)CCC1 [EPIMUQUBILIN A]", 61.7],
  ["C=C1CCCC(C)(C)C1CC[C@]1(C)CC[C@@H]([C@@H](C)C(=O)O)OO1 (stereo partly specified) [EPINUAPAPUIN B]", 2.27]
]}

Recorded GI50 for `CC(=O)CC/C=C(\C)CCC1=C(C)CCCC1(C)C` , please?
2.94

---

- Tested on: TK-10
- procedure-details: Growth inhibition of human TK10 cells
- Type: functional
result-type: GI50 (µM)
Give the value in µM but do not write µM after it.

Below, 2 molecules whose answers are already recorded.
{"columns": ["molecule", "result-unit", "GI50"],
 "data": [
  ["C=C1CCCC(C)(C)C1CC[C@]1(C)CC[C@H]([C@@H](C)C(=O)OC)OO1 (stereo partly specified) [NUAPAPUIN B]", "µM", 4.21],
  ["C=C1CCC[C@H]2[C@](C)(CC[C@]3(C)CC[C@@H]([C@@H](C)C(=O)O)OO3)[C@@H](C)CC[C@]12C [SIGMOSCEPTRELLIN C]", "µM", 1.49]
]}

In the following, a different molecule is considered.
Recorded GI50 of C=C1CCCC(C)(C)C1CCC1(C)CC[C@H]([C@@H](C)C(=O)O)OO1 (single isomer, unassigned) [NAPAPUIN B] , please.
4.06

---

# GI50 annotations
- Tested on: CCRF-CEM
- procedure-details: Growth inhibition of human CCRF-CEM cells
- Format: functional
The response must be a number in nM with no trailing unit.

{"columns": ["compound", "target", "result-unit", "GI50"],
 "data": [
  ["COC(=O)[C@H](C)[C@H]1CC[C@@](C)(CCC2=C(C)CCCC2(C)C)OO1", "CCRF-CEM", "nM", 19400],
  ["C=C1CCCC(C)(C)C1CCC1(C)CC[C@H]([C@@H](C)C(=O)O)OO1 (single isomer, unassigned)", "CCRF-CEM", "nM", 1760]
]}

// next item, GI50 requested
Need GI50 of `C=C1CCC[C@H]2[C@](C)(CC[C@]3(C)CC[C@H]([C@@H](C)C(=O)O)OO3)[C@@H](C)CC[C@]12C` , thanks.
200

---

- System: UACC-62
- procedure-details: Growth inhibition of human UACC62 cells
- Assay type: functional
# GI50 values compiled below

{"columns": ["molecule", "observed-measurement"],
 "data": [
  ["C=C1CCCC(C)(C)C1CCC1(C)CC[C@H]([C@@H](C)C(=O)O)OO1 (single isomer, unassigned) [NAPAPUIN B]", "9.24 µM"],
  ["C=C1CCC[C@H]2[C@](C)(CC[C@]3(C)CC[C@H]([C@@H](C)C(=O)O)OO3)[C@@H](C)CC[C@]12C [SIGMOSCEPTRELLIN A]", "2.32 µM"],
  ["COC(=O)[C@H](C)[C@H]1CC[C@@](C)(CCC2=C(C)CCCC2(C)C)OO1 [NUAPAPUIN A METHYL ESTER]", "> 25 µM"]
]}

Give UACC-62 GI50 for `CC(=O)CC/C=C(\C)CCC1=C(C)CCCC1(C)C`
> 15 µM

Consider next the molecule C=C1CCCC(C)(C)C1CC[C@]1(C)CC[C@H]([C@@H](C)C(=O)OC)OO1 (stereo partly drawn) [NUAPAPUIN B] in the same way.
4.13 µM

Also C=C1CCCC(C)(C)C1(O)CC/C(C)=C/CC[C@]1(C)CC[C@@H]([C@@H](C)C(=O)OC)OO1 (stereo partly drawn) [MUQUBILIN B] , if possible.
> 17.5 µM

// same read-out, input: `C=C1CCC[C@H]2[C@](C)(CCC(C)=O)[C@@H](C)CC[C@]12C`
> 15 µM

Request: C=C1CCCC(C)(C)C1CC[C@]1(C)CC[C@@H]([C@@H](C)C(=O)O)OO1 (stereo partly drawn) [EPINUAPAPUIN B]
> 10 µM
